These entries and their values trace back to patent US20070015771A1.

- System: SH rat prostate
- Experimental protocol: 5 day systemic administration in male SH rats, prostate
- Type: in vivo
- Set-up: dose or concentration left out as unconfirmed
- Measurement parameters: Rattus norvegicus, po, 144 h, read-out: Prostate shrinkage
Parameter measured: inhibition in vivo (%)
Reply numerically in %, unit not repeated.

| Compound | Measured value |
| --- | --- |
| OCc1nn(Cc2ccc(Cl)cc2Cl)c2ccccc12 | 12.9 |
| O=C(O)c1nn(Cc2cc(Cl)ccc2Cl)c2ccccc12 | 31.7 |
| N#Cc1ccc(Cn2nc(C(=O)O)c3ccccc32)c(Cl)c1 | 5.5 |
| O=C(O)c1nn(Cc2ccc(Cl)cc2)c2ccc(Cl)cc12 | -0.4 |

Identify measured inhibition in vivo obtained with SH rat prostate for CC(c1ccc(Cl)cc1Cl)n1nc(C(=O)O)c2ccccc21 (stereo not shown) .
18.2

Identify measured inhibition in vivo obtained with SH rat prostate for "O=C(O)c1cn(Cc2ccc(Cl)cc2Cl)c2ccccc12" .
10.1

Identify measured inhibition in vivo obtained with SH rat prostate for "O=C(O)c1nn(Cc2ccc(Cl)c(Cl)c2)c2ccccc12" .
5
